Attribute: IC50
Test system: SARS-CoV-2
Protocol: microbe, parasite or virus in culture
Measurement setup: Severe acute respiratory syndrome coronavirus 2, Vero C1008, 48 h, read-out: pIC50 (converted)

| Molecule | IC50 |
| --- | --- |
| COCCOc1c(OC)cc(Cc2cnc(N)nc2N)cc1OC [TETROXOPRIM] | > 20 µM |
| CC1(C)Oc2ccc(C#N)cc2[C@@H](N2CCCC2=O)[C@@H]1O [LEVCROMAKALIM] | > 20 µM |
| CNCC(O)CC12CCC(c3ccccc31)c1ccccc12 (stereo not given) [OXAPROTILINE] | > 100 µM |
| CCC(=O)Nc1c(C)cc(C(=O)N2CCC(N(C)CCc3ccccc3)CC2)cc1C | > 20 µM |
| C[C@H](Oc1cc(-c2cnn(C3CCNCC3)c2)cnc1N)c1c(Cl)ccc(F)c1Cl | 6.76 µM |

----------
Test system: SARS-CoV-2
Protocol: microbe, parasite or virus in culture
Type: functional, organism-based, Chlorocebus sabaeus, Vero C1008
Measurement setup: Severe acute respiratory syndrome coronavirus 2, Vero C1008, 48 h; read-out: IC50
Value kind: IC50

| Compound | Result |
| --- | --- |
| COc1cc2c(N3CCN(C(=O)Nc4ccc(OC(C)C)cc4)CC3)ncnc2cc1OCCCN1CCCCC1 | > 100 µM |
| CC(C)(C)c1ccc(C(O)CCCN2CCC(C(O)(c3ccccc3)c3ccccc3)CC2)cc1 (stereo not drawn) | > 100 µM |
| C#CC1(OC(C)=O)CCC2C3CCC4=C/C(=N/O)CCC4C3CCC21CC (stereo not drawn) | > 100 µM |
| O=C1CC2(CCCC2)CC(=O)N1CCCCN1CCN(c2nsc3ccccc23)CC1 | > 100 µM |
| Nc1ccn([C@@H]2S[C@H](CO)[C@@H](O)[C@H]2F)c(=O)n1 | > 20 µM |
| Cc1c(-c2ccc(O)cc2)n(Cc2ccc(OCCN3CCCCC3)cc2)c2ccc(O)cc12 [PIPENDOXIFENE] | > 6.31 µM |
| CCOC(=O)[C@H]1O[C@@H]1C(=O)N[C@@H](CC(C)C)C(=O)NCCC(C)C | 85.1 µM |
| Cc1cc(C)c2nc(-c3cnc(NCCCC4CCN(C)CC4)nc3C)[nH]c2c1 | > 50.1 µM |

----------
Test system: SARS-CoV-2
Protocol: microbe, parasite or virus in culture
Measurement setup: Severe acute respiratory syndrome coronavirus 2, Vero C1008, 48 h
Attribute: IC50

| Compound | IC50 |
| --- | --- |
| O=C(COc1ccc(Cl)cc1)N1CCN(Cc2ccc3c(c2)OCO3)CC1 [FIPEXIDE] | > 20 µM |
| CCN(CC)CCOC(=O)C(c1ccccc1)C1CCCCC1 (stereo not given) [DROFENINE] | > 20 µM |
| Cc1nc2ccc(Oc3ccccc3)cc2c2c1CCN2CCc1ccccc1 | > 20 µM |
| CCCCCCCCCC(=O)O[C@H]1CC[C@H]2[C@@H]3CCC4=CC(=O)CC[C@@H]4[C@H]3CC[C@]12C [NANDROLONE DECANOATE] | > 20 µM |
| CC(C)C[C@H](NC(=O)N1CCCCCC1)C(=O)N[C@H](Cc1cn(C)c2ccccc12)C(=O)N[C@H](Cc1ccccn1)C(=O)O | > 20 µM |
| O=C(Nc1nc2cccc(-c3ccc(CN4CCS(=O)(=O)CC4)cc3)n2n1)C1CC1 [FILGOTINIB] | > 20 µM |
| CC(=O)C1(O)CCC2C3CC(C)C4=CC(=O)C=CC4(C)C3(F)C(O)CC21C (stereo not given) | > 20 µM |
| CCC(=O)C(c1ccccc1)(c1ccccc1)C(C)CN(C)C (stereo not given) [ISOMETHADONE] | > 20 µM |
| CN1CCC(=C2c3ccccc3C=Cc3ccccc32)CC1 [CYPROHEPTADINE] | > 20 µM |
| C[C@H]1[C@H](OC(=O)CCC(=O)O)O[C@@H]2O[C@@]3(C)CC[C@H]4[C@H](C)CC[C@@H]1[C@@]24OO3 [ARTESUNATE] | > 20 µM |
| CC12CCC(=O)C(O)=C1CCC1C2CCC2(C)C1CC[C@]2(C)O (stereo not given in full) | > 20 µM |
| COc1ccc(-c2ccc3cc(C(=O)O)ccc3c2)cc1C12CC3CC(CC(C3)C1)C2 | > 20 µM |
| C=C1CC[C@@]2(O)[C@H]3Cc4ccc(O)c5c4[C@@]2(CCN3CC2CC2)[C@H]1O5 | > 20 µM |
| CCC(=O)C(CC(C)N1CCOCC1)(c1ccccc1)c1ccccc1 (stereo not given) [PHENADOXONE] | > 20 µM |
| CC(=O)OCCN1CCN(CCCN2c3ccccc3Sc3ccc(Cl)cc32)CC1 [THIOPROPAZATE] | > 20 µM |
| O=P(O)(O)OCC(O)CO (stereo not given) | > 20 µM |
| Cc1ncc(C[n+]2csc(CCO)c2C)c(N)n1 [THIAMINE ION] | > 20 µM |
| CCC(=O)OC(CC(=O)O)C[N+](C)(C)C (stereo not given) | > 20 µM |
| C=CCN1Cc2ccccc2-c2ccccc2C1 [AZAPETINE] | > 20 µM |
| CC(C)[C@H](O)C(=O)N[C@@H](C)C(=O)N[C@@H]1C(=O)N(C)CCc2ccccc21 | > 20 µM |
| C#C[C@]1(OC(C)=O)CC[C@H]2[C@@H]3CCC4=C[C@@H](OC(C)=O)CC[C@@H]4[C@H]3CC[C@@]21C [ETHYNODIOL DIACETATE] | > 20 µM |
| COC1C(OC(=O)/C=C/C=C/C=C/C=C/C(=O)O)CCC2(CO2)C1C1(C)OC1CC=C(C)C (stereo not given) | > 20 µM |
| CC(=O)SCC(Cc1ccccc1)C(=O)NCC(=O)OCc1ccccc1 (stereo not given) [RACECADOTRIL] | > 20 µM |
| CC(=O)[C@H]1CC[C@H]2[C@@H]3CC[C@H]4C[C@H](O)CC[C@]4(C)[C@H]3C(=O)C[C@]12C [ALFAXALONE] | > 20 µM |
| CCC1(O)CC2CN(CCc3c([nH]c4ccccc34)C(C(=O)OC)(c3cc4c(cc3OC)N(C)C3C(O)(C(=O)OC)C(OC(C)=O)C5(CC)C=CCN6CCC43C65)C2)C1 (stereo not given) | > 20 µM |
| COc1cc2c(cc1OC)C1Cc3ccc(OC)c(OC)c3CN1CC2 (stereo not given) | > 20 µM |
| CC(C)(C)c1cc2c(cc1Cl)C=C(C(=O)O)C(C(F)(F)F)O2 (stereo not given) | > 20 µM |
| COc1ccc(CCN)cc1OC | > 20 µM |
| O=C(O)CNC(=O)C1C(=O)N(C2CCCCC2)C(=O)N(C2CCCCC2)C1=O [DAPRODUSTAT] | > 20 µM |
| O=c1c2cc(O)c(O)cc2oc2cc(O)c([C@@H]3O[C@H](CO)[C@@H](O)[C@H](O)[C@H]3O)c(O)c12 [MANGIFERIN] | > 20 µM |
| COC(=O)[C@H](C)N[P@](=O)(OC[C@H]1O[C@@H](n2cc(/C=C/Br)c(=O)[nH]c2=O)C[C@@H]1O)Oc1ccccc1 | > 20 µM |
| Cc1c(NC(C)C)c(=O)n(-c2ccccc2)n1C [RAMIFENAZONE] | > 20 µM |
| C1CCC2(C1)C1CN(CC3CC3)CC2CN(CC2CC2)C1 | > 20 µM |
| CN(C)CCOc1ccc(/C(=C(\CCCl)c2ccccc2)c2ccccc2)cc1 | > 20 µM |
| Cc1cc(Nc2ncc(Cl)c(Nc3ccccc3S(=O)(=O)C(C)C)n2)c(OC(C)C)cc1C1CCNCC1 [CERITINIB] | > 20 µM |
